Test: Cell viability assay (WST-8), MDA-MB-231
Type: cell-based, human
Condition Info: human, MDA-MB-231 cells, conc 100, 72 h, replicates; read-out: cell viability relative to control
Provide the reported viability at 72 h of each item.
One number for each entry, in %.

[
  {
    "Molecule": "C=C(CN1CCOCC1)C(=O)NC[C@@H](NC(=O)[C@H](Cc1nc2ccc(C(C)C)cc2s1)NC(=O)CC)C1CCCCC1",
    "Unit": "%",
    "viability at 72 h": 97.2
  },
  {
    "Molecule": "C=C(CN1CCOCC1)C(=O)NC[C@H](NC(=O)[C@@H](Cc1nc2ccc(C(C)C)cc2s1)NC(=O)CC)C1CCCCC1 [DI-1548DD]",
    "Unit": "%",
    "viability at 72 h": 104
  }
]

Below is a list of molecules. For each, state its recorded viability at 72 h.
1. CCC(=O)N[C@@H](Cc1nc2ccc(C(C)C)cc2s1)C(=O)N[C@H](CNC(=O)CCN1CCOCC1)C1CCCCC1
2. NS(=O)(=O)OC[C@@H]1C[C@@H](n2ccc3c(N[C@H]4CCc5ccccc54)ncnc32)C[C@@H]1O

109
43.4
